B1: 1ZHC (parent)
chain: HEFRDEISVLKANNPHFDKIFEKHNQLDDDIKTAEQQNASDAEVSHMKKQKLKLKDEIHSMIIEYREK

variants of: B1; assay: folding stability dG (cDNA display proteolysis); higher = more stable; details: PBS, room temperature
Listed next: entries and their corresponding folding stability dG.
Please reply with the bare figure in kcal/mol and do not write the unit itself.

Worked cases, folding stability dG given:
• D5L = 0.917
• H59Q = 0.83

input: Identify the reported folding stability dG for the following entry. A39H
output: 0.973

The measured values listed here are drawn from the MegaScale stability set (Tsuboyama et al. 2023).
